// provenance: patent US20240228489A1

# target-system: human mAChR M1 (Homo sapiens, UniProt P11229)
# Sequence (P11229 whole entry): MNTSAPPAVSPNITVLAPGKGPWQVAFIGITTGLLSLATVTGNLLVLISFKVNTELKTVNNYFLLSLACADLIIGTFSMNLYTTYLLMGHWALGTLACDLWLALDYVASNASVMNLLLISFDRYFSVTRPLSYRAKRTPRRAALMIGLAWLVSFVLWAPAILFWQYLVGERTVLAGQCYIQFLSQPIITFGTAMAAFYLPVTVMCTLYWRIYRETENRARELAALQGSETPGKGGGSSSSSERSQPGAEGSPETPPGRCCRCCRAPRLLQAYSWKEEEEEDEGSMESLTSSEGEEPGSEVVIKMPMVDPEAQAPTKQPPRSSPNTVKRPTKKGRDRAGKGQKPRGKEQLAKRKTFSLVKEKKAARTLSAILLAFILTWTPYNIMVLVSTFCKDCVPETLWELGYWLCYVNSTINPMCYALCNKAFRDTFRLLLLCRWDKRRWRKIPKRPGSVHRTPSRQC
# protocol-notes: mAChR M1 cell-based functional assay (calcium mobilization), agonist mode: compound alone, Emax relative to acetylcholine maximum
# run-parameters: relative to the maximum for acetylcholine
measured-attribute: Emax (%)

These recorded examples may help you get a feel for the data.
[
  {
    "smiles-entry": "[2H]C1([2H])c2ncccc2C(=O)N1Cc1c(F)cc(-c2ccc3c(cnn3C([2H])([2H])[2H])c2)cc1F",
    "measured-attribute": "Emax",
    "unit": "%",
    "result": 3
  },
  {
    "smiles-entry": "[2H]C1([2H])c2ncccc2C(=O)N1Cc1ccc(-c2cccc3nn(C([2H])([2H])[2H])cc23)cc1C",
    "measured-attribute": "Emax",
    "unit": "%",
    "result": 9
  }
]

P: [2H]C1([2H])c2ncccc2C(=O)N1Cc1ccc(-c2ccc(OCCOC)c3nn(C)cc23)cc1F
Q: [2H]C1([2H])c2ncccc2C(=O)N1Cc1c(F)cc(-c2ccc(C(F)(F)F)c3nn(C)cc23)cc1F
# returns the entry with the larger Emax; inputs P and Q Mark your selection by writing its label.
P
(P: 21%, Q: 2%)
